# credit: patent EP4810040A2

Measured IC90 accompanies every entry in the list below.
# test_system: APOL1 G1 (Homo sapiens, UniProt O14791, I384M/S342G)
# Sequence (O14791 28-398 S342G/I384M): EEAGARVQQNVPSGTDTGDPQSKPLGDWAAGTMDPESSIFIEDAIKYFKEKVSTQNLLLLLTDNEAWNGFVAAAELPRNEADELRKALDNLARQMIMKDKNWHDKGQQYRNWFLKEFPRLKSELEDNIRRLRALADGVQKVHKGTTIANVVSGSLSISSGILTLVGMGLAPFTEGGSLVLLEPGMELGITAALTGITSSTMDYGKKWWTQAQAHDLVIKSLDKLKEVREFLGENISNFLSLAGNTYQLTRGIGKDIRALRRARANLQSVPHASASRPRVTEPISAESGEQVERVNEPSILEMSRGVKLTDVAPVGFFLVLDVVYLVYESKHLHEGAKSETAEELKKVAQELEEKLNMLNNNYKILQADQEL
# experiment_summary: MultiTox-Fluor Multiplex Cytotoxicity Assay, tet-inducible APOL1 G1 T-REx-HEK293 cells
# Format: cell-based
# Design: expressed in transfected cells; host or cells: T-REx HEK293, clone G1 DC3.25 (pAAVS1-Puro-APOL1 G1)
# test_parameters: HEK293, Multi-Tox Assay; APOL1 variant (G0/G1/G2) of the HEK293 cells not given; read-out: Multi-Tox Assay IC90

Some molecules with recorded IC90:
| molecule | IC90 |
| --- | --- |
| C[C@H]1C[C@@]2(C[C@@H](c3ccccn3)N1)OCCc1cc(Cl)sc12 (racemic) | < 0.05 µM |
| COc1cccc(Cn2cc([C@@H]3C[C@]4(C[C@H](C)N3)OC[C@@H](O)c3cc(Cl)sc34)nn2)c1 | 0.05 to 0.5 µM |
| C[C@H]1C[C@@]2(C[C@@H](c3cn(C)nn3)N1)OCCc1sc(C(F)(F)F)cc12 | < 0.05 µM |
| COc1cc(F)cc(Cn2cc([C@@H]3C[C@]4(C[C@H](C)N3)OC[C@@H](O)c3cc(Cl)sc34)nn2)c1 | < 0.05 µM |
| C[C@H]1C[C@@]2(C[C@@H](c3cn(C)nn3)N1)OCCc1c2sc(C(F)(F)F)c1CO | < 0.05 µM |

Query: Answer with reported IC90 of C[C@H]1C[C@@]2(C[C@@H](c3cn(CC#N)nn3)N1)OC[C@@H](O)c1cc(Cl)sc12
Reply: 0.05 to 0.5 µM

Query: Answer with reported IC90 of COc1ccc(C2CC3(CC(C)N2)OCCc2cc(Cl)sc23)nn1 (mixture of isomers)
Reply: < 0.05 µM
